# target: LTA4-h (Homo sapiens, UniProt P09960)
# Construct: in human whole blood has been determined using an ex vivo assay; from tissue; host or cells: human whole blood (male and female donors)
# Sequence (P09960 1-611): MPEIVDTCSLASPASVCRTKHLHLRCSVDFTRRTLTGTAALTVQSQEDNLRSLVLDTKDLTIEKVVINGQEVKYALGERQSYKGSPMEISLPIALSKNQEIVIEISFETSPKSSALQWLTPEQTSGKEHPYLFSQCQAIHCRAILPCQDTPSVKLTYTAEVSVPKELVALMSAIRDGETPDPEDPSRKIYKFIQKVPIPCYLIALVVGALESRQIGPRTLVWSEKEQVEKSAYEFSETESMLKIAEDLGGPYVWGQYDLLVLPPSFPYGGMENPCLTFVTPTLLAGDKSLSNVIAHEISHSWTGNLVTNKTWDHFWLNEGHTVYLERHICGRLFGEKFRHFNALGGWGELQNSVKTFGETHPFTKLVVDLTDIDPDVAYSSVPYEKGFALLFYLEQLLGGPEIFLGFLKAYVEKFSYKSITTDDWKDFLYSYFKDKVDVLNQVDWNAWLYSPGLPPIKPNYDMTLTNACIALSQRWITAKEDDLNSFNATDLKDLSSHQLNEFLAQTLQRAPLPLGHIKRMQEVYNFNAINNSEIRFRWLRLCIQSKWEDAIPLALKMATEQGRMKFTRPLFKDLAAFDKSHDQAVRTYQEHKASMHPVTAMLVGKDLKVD
# test-name: human whole blood ex vivo assay: A23187-stimulated LTB4 production measured by ELISA
# Format: cell-based
# stated-conditions: IC50 in human whole blood, female blood
# Experimental: The IC50 of 4-{[(1S,4S)-5-({4-[4-oxazol-2-yl-phenoxy]phenyl}methyl)-2,5-diazabicyclo[2.2.1]heptan-2-yl]methyl}benzoic acid in human whole blood has been determined using an ex vivo assay. […] The ability of 4-{[(1S,4S)-5-({4-[4-oxazol-2-yl-phenoxy]phenyl}methyl)-2,5-diazabicyclo[2.2.1]heptan-2-yl]methyl}benzoic acid to reduce is LTB4 production is determined by ELISA. […]
measured-property: pIC50
Convention used: pIC50 is expressed as -log10 of the molar concentration.

"O=C(O)c1ccc(CN2C[C@@H]3C[C@H]2CN3Cc2ccc(Oc3ccc(-c4ncco4)cc3)cc2)cc1" has a reported pIC50 of 7.17

----------
# target: LTA4-h (Homo sapiens, UniProt P09960)
# Construct: in human whole blood has been determined using an ex vivo assay; from tissue; host or cells: human whole blood (male and female donors)
# Sequence (P09960 1-611): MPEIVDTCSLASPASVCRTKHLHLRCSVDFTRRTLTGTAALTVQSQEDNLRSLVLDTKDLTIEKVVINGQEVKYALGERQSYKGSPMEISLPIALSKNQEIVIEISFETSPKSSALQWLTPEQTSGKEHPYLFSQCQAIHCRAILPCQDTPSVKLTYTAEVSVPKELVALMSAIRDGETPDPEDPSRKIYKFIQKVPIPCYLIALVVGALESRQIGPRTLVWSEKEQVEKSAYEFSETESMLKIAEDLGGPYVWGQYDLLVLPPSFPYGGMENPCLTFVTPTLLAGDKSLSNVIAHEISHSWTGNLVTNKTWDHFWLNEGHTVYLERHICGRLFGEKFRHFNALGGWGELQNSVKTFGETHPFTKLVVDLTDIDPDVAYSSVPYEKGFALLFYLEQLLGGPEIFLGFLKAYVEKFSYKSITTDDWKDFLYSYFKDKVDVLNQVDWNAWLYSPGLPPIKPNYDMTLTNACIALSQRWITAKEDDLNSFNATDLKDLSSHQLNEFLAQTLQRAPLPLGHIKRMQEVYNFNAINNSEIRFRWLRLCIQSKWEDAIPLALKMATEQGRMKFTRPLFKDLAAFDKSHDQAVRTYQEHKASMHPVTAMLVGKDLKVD
# test-name: human whole blood ex vivo assay: A23187-stimulated LTB4 production measured by ELISA
# Type: cell-based
# stated-conditions: IC50 in human whole blood, human whole blood; LTB4 production stimulated by calcium ionophore A23187
measured-property: IC50

"O=C(O)c1ccc(CN2C[C@@H]3C[C@H]2CN3Cc2ccc(Oc3ccc(-c4ncco4)cc3)cc2)cc1" has a reported IC50 of ~62.3 nM

Reference for the values: patent US10898471B2
